# assayed_system: PaCgi121;PaBud32;PaKae1;PaPcc1-His6;PaPcc2-Strep (Pyrococcus abyssi;Pyrococcus abyssi;Pyrococcus abyssi;Pyrococcus abyssi;Pyrococcus abyssi) (UniProt Q9UZ62+Q9UYB9+Q9UXT7+Q9V1Z9+A0A915Q984)
# procedure_details: fluorescence anisotropy
# condition_set: CBKP1P2 complex; 3 mM Mg2+; n=3; 20 mM Tris-HCl pH 8, 150 mM KCl, 3 mM MgCl2, 1% glycerol, 1 nM labelled tRNA (10 nM in Suppl. Fig. 7C), 20 °C, 15 min
readout_name: Kd

Query string: Endpoint output: Kd of GGGCCGGUAGCUCAGCCUGGUCAGAGCACCGGGCUUUUAACCCGGUGGUCGCGGGUUCAAAUCCCGCCCGGCCCGCCA [Pa_tRNALys (UUU)] . Value?
Result string: 100 nM

----------
# assayed_system: PaCgi121;PaBud32;PaKae1;PaPcc2-His6 (Pyrococcus abyssi;Pyrococcus abyssi;Pyrococcus abyssi;Pyrococcus abyssi) (UniProt Q9UZ62+Q9UYB9+Q9UXT7+A0A915Q983)
# Sequence (Q9UZ62 whole entry, chain 1 of 4): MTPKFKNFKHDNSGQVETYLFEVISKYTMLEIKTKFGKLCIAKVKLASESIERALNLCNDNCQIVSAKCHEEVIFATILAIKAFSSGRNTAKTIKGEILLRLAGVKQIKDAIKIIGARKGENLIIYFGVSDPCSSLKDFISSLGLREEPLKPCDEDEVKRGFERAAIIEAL
# Sequence (Q9UYB9 whole entry, chain 2 of 4): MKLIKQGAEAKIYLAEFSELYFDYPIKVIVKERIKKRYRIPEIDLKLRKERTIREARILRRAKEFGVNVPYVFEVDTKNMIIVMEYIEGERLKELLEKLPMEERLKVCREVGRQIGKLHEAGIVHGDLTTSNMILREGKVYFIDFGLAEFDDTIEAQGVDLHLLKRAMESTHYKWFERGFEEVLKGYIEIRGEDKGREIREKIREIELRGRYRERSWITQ
# Sequence (Q9UXT7 whole entry, chain 3 of 4): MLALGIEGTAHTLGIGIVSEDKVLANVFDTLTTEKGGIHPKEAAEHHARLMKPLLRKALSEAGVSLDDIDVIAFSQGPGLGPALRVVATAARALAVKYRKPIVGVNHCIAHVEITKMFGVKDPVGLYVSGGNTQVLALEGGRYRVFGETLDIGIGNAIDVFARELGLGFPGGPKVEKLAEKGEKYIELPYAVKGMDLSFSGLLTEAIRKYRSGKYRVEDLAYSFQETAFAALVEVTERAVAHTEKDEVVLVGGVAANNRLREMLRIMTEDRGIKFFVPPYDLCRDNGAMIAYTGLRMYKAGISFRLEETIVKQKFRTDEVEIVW
# Sequence (chain, as listed by the source, chain 4 of 4): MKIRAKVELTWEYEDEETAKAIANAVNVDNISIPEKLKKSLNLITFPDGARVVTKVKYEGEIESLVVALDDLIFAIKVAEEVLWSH
# procedure_details: fluorescence anisotropy
# condition_set: CBKP2 complex; 3 mM Mg2+; 10 nM tRNA (Suppl. Fig. 7C); 20 mM Tris-HCl pH 8, 150 mM KCl, 3 mM MgCl2, 1% glycerol, 1 nM labelled tRNA (10 nM in Suppl. Fig. 7C), 20 °C, 15 min
readout_name: pKd
Give bare numbers, as −log10 of the molar value.

Query string: If you can, please state the reported pKd value of GGGCCGGUAGCUCAGCCUGGUCAGAGCACCGGGCUUUUAACCCGGUGGUCGCGGGUUCAAAUCCCGCCCGGCCCGCCA [Pa_tRNALys (UUU)] .
Result string: 5.74
